Experiment: Plasma cholesterol and triglycerides in C57BL/6 mice (Olympus AU400e)
Assay type: in vivo, mouse
Details: Week 0 (before treatment), 50 mg/kg/week
Oligonucleotides are written 5' to 3', each unit as a sugar letter and its base; * is a phosphorothioate linkage, no mark a phosphodiester; rarer units and linkages stand in square brackets, end groups in braces. Plain capitals give the bases only. e = 2'-O-(2-methoxyethyl) (MOE); [5mC] = 5-methylcytosine; d = 2'-deoxy (DNA)
Reported endpoint: LDL cholesterol levels (mg/dL)
Give the value in mg/dL but do not write mg/dL after it.

Guide cases for LDL cholesterol levels, answers given:
Seq text	LDL cholesterol levels [mg/dL]
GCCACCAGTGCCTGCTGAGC (antisense eG*e[5mC]*e[5mC]*eA*e[5mC]*d[5mC]*dA*dG*dT*dG*d[5mC]*d[5mC]*dT*dG*d[5mC]*eT*eG*eA*eG*e[5mC]) [ISIS 447143]	13
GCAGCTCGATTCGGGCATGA (antisense eG*e[5mC]*eA*eG*e[5mC]*dT*d[5mC]*dG*dA*dT*dT*d[5mC]*dG*dG*dG*e[5mC]*eA*eT*eG*eA) [ISIS 447118]	14
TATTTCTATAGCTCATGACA (antisense eT*eA*eT*eT*eT*d[5mC]*dT*dA*dT*dA*dG*d[5mC]*dT*d[5mC]*dA*eT*eG*eA*e[5mC]*eA) [ISIS 447144]	14

Query :: Query (sequence): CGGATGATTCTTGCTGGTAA (antisense e[5mC]*eG*eG*eA*eT*dG*dA*dT*dT*d[5mC]*dT*dT*dG*d[5mC]*dT*eG*eG*eT*eA*eA) [ISIS 447114] ; field requested: LDL cholesterol levels
Result :: 11

---

Each item that follows carries a reported APOA1 plasma protein levels.
System: APOA1 plasma protein
Test: APOA1 plasma protein levels in C57BL/6 mice
Type: in vivo, mouse
Design: unit not given here
Conditions: Week 0 (before treatment), 50 mg/kg/week
Oligonucleotides are written 5' to 3', each unit as a sugar letter and its base; * is a phosphorothioate linkage, no mark a phosphodiester; rarer units and linkages stand in square brackets, end groups in braces. Plain capitals give the bases only. e = 2'-O-(2-methoxyethyl) (MOE); [5mC] = 5-methylcytosine; d = 2'-deoxy (DNA)

Guide cases for APOA1 plasma protein levels, answers given:
Seq text	System tested	APOA1 plasma protein levels
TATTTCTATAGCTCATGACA (antisense eT*eA*eT*eT*eT*d[5mC]*dT*dA*dT*dA*dG*d[5mC]*dT*d[5mC]*dA*eT*eG*eA*e[5mC]*eA) [ISIS 447144]	APOA1 plasma protein	+10
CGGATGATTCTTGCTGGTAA (antisense e[5mC]*eG*eG*eA*eT*dG*dA*dT*dT*d[5mC]*dT*dT*dG*d[5mC]*dT*eG*eG*eT*eA*eA) [ISIS 447114]	APOA1 plasma protein	+9
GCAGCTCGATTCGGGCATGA (antisense eG*e[5mC]*eA*eG*e[5mC]*dT*d[5mC]*dG*dA*dT*dT*d[5mC]*dG*dG*dG*e[5mC]*eA*eT*eG*eA) [ISIS 447118]	APOA1 plasma protein	+9

Okay, now this sequence:
Query :: Query (sequence): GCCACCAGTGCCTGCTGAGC (antisense eG*e[5mC]*e[5mC]*eA*e[5mC]*d[5mC]*dA*dG*dT*dG*d[5mC]*d[5mC]*dT*dG*d[5mC]*eT*eG*eA*eG*e[5mC]) [ISIS 447143] ; field requested: APOA1 plasma protein levels
Result :: +10
